System: MOLT-4 leukemia
Assay: NCI tumour cell line growth inhibition, 48 h
measured_parameter: TGI

Some compounds with known TGI results, for comparison:
{"compound": "CCOC(=O)c1c2c(n3ccccc13)C(=O)c1ccccc1C2=O", "result": "> 100 µM"}
{"compound": "O=[N+]([O-])c1ccc(-c2nnc(C34CC5CC(CC(C5)C3)C4)o2)cc1", "result": "> 100 µM"}
{"compound": "NC1C[C@H](n2cc(/C=C/Br)c(=O)[nH]c2=O)C[C@@H]1CO (stereo partly specified)", "result": "> 100 µM"}
{"compound": "CCCC(C)c1cc(Cc2cc(Cl)cc(Cl)c2O)c(O)c(Cc2cc(Cl)cc(Cl)c2O)c1 (stereo unspecified)", "result": "4.83 µM"}
{"compound": "COC(=O)C(CC12CC3CC(CC(C3)C1)C2)NC(=O)C(N)CC(=O)O (stereo unspecified)", "result": "> 100 µM"}
{"compound": "COC(=O)C(=O)C1(CCC(C)=O)c2ccccc2-c2c(C)ccc(C)c21 (stereo unspecified)", "result": "66 µM"}
{"compound": "COc1cccc2c1c(C(=O)C(=O)Nc1cc(C)no1)cn2Cc1ccc(F)cc1", "result": "> 60.7 µM"}
{"compound": "Cc1cc(N(CCCl)CCCl)ccc1C=Nc1ccc(-c2csc(Cc3ccccc3)n2)cc1", "result": "62 µM"}

Record COc1cccc(N=Cc2cc3cc(Br)ccc3nc2Cl)c1 , field TGI: > 50 µM

Record Cc1csc(=S)n1OC(=O)NC1CCCCC1 , field TGI: > 29.4 µM

Record O=C(NCCO)Nc1ccc(-c2nc(N3CCOCC3)c3cccn3n2)cc1 , field TGI: > 49.2 µM

Record O=C(CN1CCOCC1)Nc1nc(-c2ccc(Cl)cc2)cs1 , field TGI: 42.6 µM

Record CN(C)CCCNC(=O)CCNC(=O)c1cc(NC(=O)c2cc(NC(=O)c3cc(NC(=O)c4nc(NC(=O)CCCNC(=O)c5cc(NC(=O)c6cc(NC(=O)c7cc(NC(=O)c8nccn8C)cn7C)cn6C)cn5C)cn4C)cn3C)cn2C)cn1C , field TGI: > 100 µM

Record C=CCNc1nc(C#N)c(N)s1 , field TGI: > 10 µM

Record O=C1C(Br)=CC2(C=C1Br)CCNC1=C2C(=O)c2ccccc2C1=O , field TGI: 22.7 µM

====

Catalogue of compounds with associated TGI
Test system: RPMI-8226 leukemia
Assay: NCI tumour cell line growth inhibition, 48 h
Give the quantity in µM, number only.

Some compounds with known TGI results, for comparison:
{"compound": "COc1ccc2c(C)cc(N/N=C(\\C)C=O)nc2c1", "TGI / µM": 22.9}
{"compound": "COC(=O)C(=O)C1(CCC(C)=O)c2ccccc2-c2c(C)ccc(C)c21 (stereo not given)", "TGI / µM": 78.6}
{"compound": "COc1ccc2nc(-c3cccs3)cc(C(O)CN3CCSCC3)c2c1 (stereo not given)", "TGI / µM": 43}

Attention now shifts to the item below.
Record COc1ccc(/C=C2\C(=O)N(C3OC(COC(C)=O)C(OC(C)=O)C(OC(C)=O)C3OC(C)=O)c3ccccc3N=C2N)cc1 (stereo not given) , field TGI: 37.5

====

System: SF-268 CNS
Test: NCI tumour cell line growth inhibition, 48 h
Could you label it 1.0 if measured TGI is 40 µM or higher, and 0.0 otherwise?

{"compound": "O=C(CCCN1CCC2(CC1)OC(=O)N(c1ccccc1)C2=O)c1ccccc1", "assigned_class": 1.0}

Moving on to the next compound.
Exercise: Please check the record CC1(C)CC(=O)c2c(C(F)(F)F)nn(-c3ccc(C(N)=O)c(NC4CCC(OC(=O)CN)CC4)c3)c2C1 (stereo not given) and state if its TGI is at or above 40 µM.
Key: 1.0

====

System: SK-MEL-2 melanoma
Experiment: NCI tumour cell line growth inhibition, 48 h
Catalogue of compounds with associated TGI

{"structure_notation": "O=c1cc(NNc2ccccc2)[nH]c(=S)[nH]1", "result": "61.3 µM"}
{"structure_notation": "O=C(/C=C/c1ccccc1)/C=N/N1C(=S)N(c2ccccc2)C(=Nc2ccccc2)C1=Nc1ccccc1", "result": "> 100 µM"}
{"structure_notation": "COc1cc(C(=O)C/C(CCCC(=O)Nc2ccccc2[N+](=O)[O-])=N/NC(=O)c2cc3ccccc3cc2O)ccc1O", "result": "> 100 µM"}
{"structure_notation": "Cc1cccc2nc3c(C(=O)NCCN(C)C)cccc3cc12", "result": "3.46 µM"}

Record ONc1ncnc2nc[nH]c12 , field TGI: > 100 µM

====

Tested on: IGROV1 ovarian
Assay: NCI tumour cell line growth inhibition, 48 h
Catalogue of compounds with associated TGI

Some compounds with known TGI results, for comparison:
{"compound": "COc1ccc(-c2n/c(=C\\c3c(O)[nH]c4ccc(OC)cc34)cc3c2=Nc2ccccc2-3)cc1", "TGI": "> 100 µM"}
{"compound": "O=C(O)/C=C\\C(=O)N1C/C(=C\\c2ccccc2Cl)C(=O)/C(=C/c2ccccc2Cl)C1", "TGI": "11.2 µM"}
{"compound": "COC(=O)C1=CC2CCCC1(O)C(C(C)=O)C2 (stereo unspecified)", "TGI": "32.9 µM"}
{"compound": "COc1cccc2c1c(C(=O)C(=O)Nc1cc(C)no1)cn2Cc1ccc(F)cc1", "TGI": "> 45.8 µM"}

Record COc1ccc(-c2nc3sc4c(c3c(=O)[nH]2)CCCCCC4)cc1 , field TGI: > 33.2 µM

Record O=C(CCC(NC(=O)OCc1ccccc1)C(=O)OCc1ccccc1)Nc1ccc(OCc2ccccc2)cc1 (stereo unspecified) , field TGI: > 31.6 µM

Record NC1CC(=O)c2sc(I)cc21 (stereo unspecified) , field TGI: > 100 µM

Record CCOC(=O)c1c2c(n3ccccc13)C(=O)c1ccccc1C2=O , field TGI: > 100 µM

Record Nc1nc2c(c3ncncc13)C(c1cccc(C(F)(F)F)c1)Cc1ncncc1-2 (stereo unspecified) , field TGI: 74.9 µM

Record CCCCCCCCCCC(C(=O)O)C1(C(=O)O)CCC(=O)O1 (stereo unspecified) , field TGI: > 100 µM

Record O=C1C(Cl)=C(OCCCCl)C(=O)c2c(O)ccc(O)c21 , field TGI: 13.1 µM

====

System: MDA-MB-231 breast
Assay: NCI tumour cell line growth inhibition, 48 h
measured_parameter: TGI

{"compound": "CCOC(=O)CSc1nc(N)c2c(-c3ccc(OC)c(OC)c3)c3c(nc2n1)CCCC3", "TGI": "> 100 µM"}
{"compound": "COC(=O)[C@H](C[C@H](Cc1ccccc1)NC(=O)c1csc([C@@H](C[C@H](C(C)C)N(C)C(=O)[C@@H](NC(=O)[C@H]2CCCCN2C)C(C)C)OC(C)=O)n1)NC(=O)OCc1ccccc1", "TGI": "> 4.9 µM"}
{"compound": "O=[N+]([O-])C(C(Cl)=C(Cl)Cl)=C(N(Cc1ccccc1)Cc1ccccc1)N(Cc1ccccc1)Cc1ccccc1", "TGI": "> 100 µM"}
{"compound": "CN(CC1(CO)CCC1)c1cc(Cl)nc(N)n1", "TGI": "> 100 µM"}
{"compound": "O=C(c1cccc2ccccc12)C1(Br)S(=O)(=O)OCCOS1(=O)=O", "TGI": "> 100 µM"}
{"compound": "CCC1NC(=O)C1NC(=O)OC (centres undefined)", "TGI": "> 100 µM"}

Record Cn1cccc1-c1cc(-c2cccs2)nc(N)c1C#N , field TGI: > 100 µM

Record O=C(/C=C(\O)c1ccccc1)C(=O)NNc1ccc([N+](=O)[O-])cc1[N+](=O)[O-] , field TGI: 67.6 µM

Record O=C(CCC(NC(=O)OCc1ccccc1)C(=O)OCc1ccccc1)Nc1ccc(OCc2ccccc2)cc1 (centres undefined) , field TGI: 25.6 µM

====

Tested on: SK-OV-3 ovarian
Assay: NCI tumour cell line growth inhibition, 48 h
Catalogue of molecules with associated TGI

{"molecule": "N#C/C(=C\\c1ccc(O)c(O)c1)C(N)=S", "TGI": "> 100 µM"}
{"molecule": "CCCC1(NC(=O)C(F)(F)F)CC(OC)OC2COC(c3ccccc3)OC21 (stereo unspecified)", "TGI": "> 100 µM"}
{"molecule": "O=[N+]([O-])c1ccc(-c2csc3nc(-c4ccccc4)nn23)cc1", "TGI": "> 100 µM"}
{"molecule": "O=C1C=C2C(=NC34CCCCC3C(c3ccccc3)C3=C(c5ccccc5CC3)N24)c2ccccc21 (stereo unspecified)", "TGI": "> 10 µM"}
{"molecule": "O=C1CC(c2ccc(O)cc2)C2(O1)C(=O)OC(C(O)CO)C2O (stereo unspecified)", "TGI": "> 100 µM"}
{"molecule": "COc1ccc(/C=C2\\NC(=S)N(CN3CCCCC3)C2=O)cc1", "TGI": "> 100 µM"}
{"molecule": "COc1ccc(/C=C2\\C(=O)N(C3OC(COC(C)=O)C(OC(C)=O)C(OC(C)=O)C3OC(C)=O)c3ccccc3N=C2N)cc1 (stereo unspecified)", "TGI": "> 100 µM"}
{"molecule": "COc1cc2c(c(OC)c1)C1c3ccccc3NC(=O)N1CC2 (stereo unspecified)", "TGI": "> 100 µM"}
{"molecule": "CC(=O)N1C(c2[nH]c3ccccc3c2-c2ccccc2)CCN1c1ccccc1 (stereo unspecified)", "TGI": "> 10 µM"}
{"molecule": "CC1=C(C)C(=O)c2c(cc3ccccn23)C1=O", "TGI": "63.6 µM"}

Attention now shifts to the item below.
Record CCCC(C)c1cc(Cc2cc(Cl)cc(Cl)c2O)c(O)c(Cc2cc(Cl)cc(Cl)c2O)c1 (stereo unspecified) , field TGI: 9.23 µM

Hey, just so you know, these numbers are from PubChem BioAssay (NCI).
